Target: Aldo-keto reductase family 1 member C3 (Homo sapiens)
Sequence (P42330 whole entry): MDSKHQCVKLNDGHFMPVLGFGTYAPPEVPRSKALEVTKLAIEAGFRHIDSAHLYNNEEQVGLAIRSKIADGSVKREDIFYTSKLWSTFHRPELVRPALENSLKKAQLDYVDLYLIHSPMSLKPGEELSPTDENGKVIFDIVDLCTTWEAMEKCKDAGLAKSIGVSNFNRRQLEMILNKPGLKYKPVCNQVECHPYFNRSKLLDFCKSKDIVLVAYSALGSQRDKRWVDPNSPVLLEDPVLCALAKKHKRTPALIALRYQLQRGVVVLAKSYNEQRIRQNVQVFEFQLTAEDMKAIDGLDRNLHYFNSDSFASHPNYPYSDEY
Readout name: IC50 (nM)
Your answer is read as nM, so omit the unit and give the number.

Form field - read-out: IC50; system: Aldo-keto reductase family 1 member C3 (Homo sapiens); submitted item: CC1(C)CC[C@@]2(CCC3C4CCc5cc(C(N)=O)ccc5C4CC[C@@]32C)OC1=O (stereo partly specified)
3.2
